// provenance: PubChem BioAssay (EPA / NIEHS)

Read-out: Thyroid Hormone Responsive (THRSP), THRSP (gene 7069)
Assay: LTEA_HepaRG_THRSP: Life Technologies and Expression Analysis (LTEA) Assay for Thyroid Hormone Responsive (THRSP) using HepaRG (AID 2283536)
Settings: mRNA level, 48 h; actives raise or lower the signal
Calls of active or inactive are those of the source. Rule for the calls: active = hit-call score of the fitted dose curve at least 0.9, where 1 is the maximum; inactive = score below 0.9.
Choose the fitting class; nothing outside yes (1) (active), no (0) (inactive) is accepted.

Recorded results for 5 compounds are shown here.
Req: Entry CCCC(=O)OCCC(C)C : call = ?
Resp: no (0)

Req: Call for entry CC1(C)NC(=O)N(c2ccc([N+](=O)[O-])c(C(F)(F)F)c2)C1=O :
Resp: no (0)

Req: Hello, I am checking results. What call was entered for Clc1cc(Cl)c2c(c1)N=C1CCCCCN1C2 ?
Resp: no (0)

Req: Lab log entry: CN(C[C@@H](CC[N+]12CCC(C3CCCCC3)(CC1)CC2)c1ccc(Cl)c(Cl)c1)C(=O)c1cc(C(F)(F)F)cc(C(F)(F)F)c1 — outcome as called in the assay?
Resp: yes (1)

Req: Called result for CCOC(=O)O[C@H](C)OC(=O)c1ccc2c(c1)cc(C(=O)NC1CCN(C(C)C)CC1)n2Cc1cc(-c2ccc(Cl)s2)on1
Resp: yes (1)

Others:
Req: Short answer needed: outcome of this test for O=c1[nH]sc2ccccc12 ?
Resp: no (0)

Req: For Oc1ccc2ccccc2c1 , what call appears in the results of this test?
Resp: no (0)

Req: Could you check what this test reported for CC1=CC(=O)/C(=C(/C)O)C(=O)O1 ?
Resp: no (0)

Req: I would be grateful if you could indicate the recorded call for C[C@]12CC[C@@H]3c4ccc(O)cc4CC[C@H]3[C@@H]1CCC2=O .
Resp: no (0)

###

Read-out: Alpha-fetoprotein (AFP) gene, AFP (gene 174)
Experiment: LTEA_HepaRG_AFP: Life Technologies and Expression Analysis (LTEA) Assay for Alpha-fetoprotein (AFP) gene using HepaRG (AID 2283472)
Details: mRNA level, 48 h; actives raise or lower the signal
Active and inactive are the calls of the source. Rule for the calls: active = hit-call score of the fitted dose curve at least 0.9, where 1 is the maximum; inactive = score below 0.9.
# valid calls are active, inactive; nothing else

Req: Lab log entry: CC(C)(c1cc(Br)c(O)c(Br)c1)c1cc(Br)c(O)c(Br)c1 — outcome as called in the assay?
Resp: inactive

Moving on to another molecule below.
Req: Recorded test call requested for CCCCOC(=O)c1ccc(O)cc1
Resp: inactive

###

Read-out: Interleukin-6 (IL6), IL6 (gene 3569)
Test: BSK_CASM3C_IL6: BioMAP Diversity Plus: CASM3C Assay for Interleukin-6 (IL6) Biomarker Activity for (AID 2283040)
Conditions: primary human coronary artery smooth muscle cells; actives raise or lower the signal
The source made the active and inactive calls. The calls were made as follows: active = hit-call score of the fitted dose curve at least 0.9, where 1 is the maximum; inactive = score below 0.9.
REPORTED_PROPERTY: AC50

Field: example entries. Status: answers known.
Req: I am curious: what AC50 value has been reported for CN(C)c1ccc(C(=C2C=CC(=[N+](C)C)C=C2)c2ccc(N(C)C)cc2)cc1 ?
Resp: 6.61 µM (active)

Req: What value of measured AC50 is listed for COc1ccc2cc(S(=O)(=O)N[C@H](CC(=O)N[C@H](Cc3ccc(CN4[C@H](C)CCC[C@@H]4C)cc3)C(=O)N(C)C(C)C)c3ccc4c(c3)OCO4)ccc2c1 ?
Resp: inactive

Req: Tell me the measured AC50 of COc1cc(C(=O)NC2CCN(C)CC2)ccc1Nc1ncc2c(n1)N(C1CCCC1)CC(F)(F)C(=O)N2C , please.
Resp: 8.51 µM (active)

Req: Fill in the blank: the reported AC50 of CC(C)(O)c1ccc(CNC(=O)c2cccnc2Oc2ccc3nonc3c2)cc1 is ____.
Resp: 20 µM (active)

Req: Would you kindly share the measured AC50 for Cc1cc2c(cc1C(F)(F)F)N(C(=O)Nc1ccc(Oc3cccnc3C)nc1)CC2 ?
Resp: inactive

Req: # input compound: COCC(C)OCC(C)OCC(C)O (configuration not stated) ; wanted: its AC50
Resp: inactive

Req: Bench note: what AC50 did Cc1ccc2oc(CN(Cc3ccccc3)C(=O)Nc3c(F)cc(F)cc3F)c(-c3ccc(Cl)cc3)c2c1 show?
Resp: inactive

Req: Data request, read-out AC50, for O=c1[nH]sc2ccccc12
Resp: 8.69 µM (active)

Each of the following entries comes with a recorded value; kindly state AC50 for each.
1. CCCCOC(=O)c1ccc(O)cc1
2. CN(C[C@@H](CC[N+]12CCC(C3CCCCC3)(CC1)CC2)c1ccc(Cl)c(Cl)c1)C(=O)c1cc(C(F)(F)F)cc(C(F)(F)F)c1
3. CN1C(=O)N(c2ccccc2Br)Cc2cnc(Nc3ccc4c(c3)OCC(CO)O4)nc21 (configuration not stated)
4. CC/C(=C(/CC)c1ccc(O)cc1)c1ccc(O)cc1
5. CC1(C)NC(=O)N(c2ccc([N+](=O)[O-])c(C(F)(F)F)c2)C1=O
6. CCCCCCCCCCCO
7. O=c1ccc2ccccc2o1

Resp:
["inactive", "15.9 µM (active)", "20 µM (active)", "inactive", "inactive", "inactive", "inactive"]

// each compound listed below needs its AC50
1. CN1C(=O)CC[C@H]1c1cccnc1
2. NC(=O)c1nc(-c2cccc(-c3cc(F)ccc3OCC(F)(F)C(F)(F)F)c2)n[nH]1
3. O=C(O)Cc1cc(I)c(Oc2ccc(O)c(I)c2)c(I)c1

Resp:
["inactive", "inactive", "29.6 µM (active)"]

Batch of 6 compounds: report AC50 for each.
1. CC(=O)N1CCN(c2ccc(OC[C@H]3CO[C@](Cn4ccnc4)(c4ccc(Cl)cc4Cl)O3)cc2)CC1
2. c1ccc2n[nH]nc2c1
3. O=C(O)Cn1c(=O)n(Cc2ccc(Br)cc2F)c(=O)c2ccc(Cl)cc21
4. Cc1ncc(CO)c(CO)c1O
5. Clc1cc(Cl)c2c(c1)N=C1CCCCCN1C2
6. C[C@]12CC[C@@H]3c4ccc(O)cc4CC[C@H]3[C@@H]1CCC2=O

Resp:
1: inactive; 2: inactive; 3: inactive; 4: inactive; 5: inactive; 6: inactive

Dear reader, for each entry below, please note its AC50.
1. COc1cccc([C@H](O)C2CCN(CCc3ccc(F)cc3)CC2)c1OC
2. Cc1cc(F)ccc1-c1cc(N2CC[C@@H](O)[C@H]2CO)ncc1N(C)C(=O)C(C)(C)c1cc(C(F)(F)F)cc(C(F)(F)F)c1
3. CCCCCCCCCCCC[N+](C)(C)C
4. CC[C@@H]1C[C@H](N(Cc2cc(C(F)(F)F)cc(C(F)(F)F)c2)C(C)=O)c2cc(C(F)(F)F)ccc2N1C(=O)OC(C)C

Resp:
1: inactive; 2: 16.3 µM (active); 3: inactive; 4: inactive

// for each compound in input: emit AC50
1. O=C(O)c1ccccc1C(=O)OCc1ccccc1
2. CC(O)CC(C)(C)O (configuration not stated)

Resp:
inactive
inactive

For every record below, what is its AC50?
1. O=c1c(-c2ccc(O)cc2)coc2cc(O)cc(O)c12
2. NCc1cccc(C2CCN(C(=O)c3ccc(C#Cc4ccccc4F)o3)CC2)c1
3. CCN(CC)C(=O)c1cc(S(=O)(=O)Cc2ccccc2)c(N2CCC(c3ccccc3)CC2)cc1N(CC)CCN(C)C
4. CCN(Cc1cccc(S(=O)(=O)O)c1)c1ccc(C(=C2C=CC(=[N+](CC)Cc3cccc(S(=O)(=O)O)c3)C=C2)c2ccccc2S(=O)(=O)[O-])cc1
5. O=C1c2ccccc2C(=O)N1CCc1noc(-c2ccc(CN3CCCCCC3)s2)n1
6. CN(C)C(=O)C1(N2CCCCC2)CCN(CC[C@@]2(c3ccc(Cl)c(Cl)c3)CN(C(=O)c3ccccc3)CCO2)CC1

Resp:
1: 11.1 µM (active); 2: 33.9 µM (active); 3: 0.7 µM (active); 4: inactive; 5: inactive; 6: 31.2 µM (active)

Req: Given the compound C[C@]12CC[C@@H]3c4ccc(O)cc4CC[C@H]3[C@@H]1CC[C@H]2O , what is its reported AC50?
Resp: inactive
